Sourced from ChEMBL document CHEMBL1137181

# SYSTEM_NAME: Dipeptidyl peptidase 4 (Sus scrofa)
# Sequence (P22411 whole entry): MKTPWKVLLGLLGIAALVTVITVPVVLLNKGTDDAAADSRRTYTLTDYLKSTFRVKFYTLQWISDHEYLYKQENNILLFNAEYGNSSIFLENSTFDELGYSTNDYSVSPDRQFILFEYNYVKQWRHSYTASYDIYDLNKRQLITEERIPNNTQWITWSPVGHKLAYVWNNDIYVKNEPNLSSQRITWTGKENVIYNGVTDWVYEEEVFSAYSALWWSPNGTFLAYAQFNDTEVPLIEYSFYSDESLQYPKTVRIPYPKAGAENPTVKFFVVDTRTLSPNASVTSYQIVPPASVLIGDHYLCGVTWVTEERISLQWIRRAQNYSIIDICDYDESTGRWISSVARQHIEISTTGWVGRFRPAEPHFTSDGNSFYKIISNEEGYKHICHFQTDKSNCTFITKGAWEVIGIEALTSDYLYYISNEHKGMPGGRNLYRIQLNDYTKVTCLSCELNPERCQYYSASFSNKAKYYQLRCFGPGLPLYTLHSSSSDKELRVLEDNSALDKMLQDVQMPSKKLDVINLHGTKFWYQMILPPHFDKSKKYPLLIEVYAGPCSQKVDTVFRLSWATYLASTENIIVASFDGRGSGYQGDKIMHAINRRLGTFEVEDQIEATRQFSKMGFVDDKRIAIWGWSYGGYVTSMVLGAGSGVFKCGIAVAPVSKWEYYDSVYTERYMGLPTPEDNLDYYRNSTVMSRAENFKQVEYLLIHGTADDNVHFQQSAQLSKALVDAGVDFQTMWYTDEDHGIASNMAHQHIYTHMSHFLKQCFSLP
# PROTOCOL_TEXT: Inhibitory concentration against dipeptidyl peptidase IV of porcine kidney
MEASUREMENT_NAME: IC50
Kindly write the number and append the unit.

{"COMPOUND": "N#Cc1ccc(NCCNCC(=O)N2N=CC[C@H]2C#N)nc1", "IC50": "440 nM"}

Exam item: Provide one value: measured IC50 of CCC(C)[C@@H](N)C(=O)N1N=CCC1C#N (some centres undefined)
Marked response: 80 nM

Exam item: For the compound N#Cc1ccc(NCCNCC(=O)N2N=CCC2C#N)nc1 (centres undefined) , give its reported IC50.
Marked response: 960 nM

Exam item: Provide one value: measured IC50 of N#Cc1ccc(NCCNCC(=O)N2N=CC[C@@H]2C#N)nc1
Marked response: 6820 nM

----------
Entries with reported IC50 on Dipeptidyl peptidase 4 (Rattus norvegicus, UniProt P14740)
Sequence (P14740 whole entry): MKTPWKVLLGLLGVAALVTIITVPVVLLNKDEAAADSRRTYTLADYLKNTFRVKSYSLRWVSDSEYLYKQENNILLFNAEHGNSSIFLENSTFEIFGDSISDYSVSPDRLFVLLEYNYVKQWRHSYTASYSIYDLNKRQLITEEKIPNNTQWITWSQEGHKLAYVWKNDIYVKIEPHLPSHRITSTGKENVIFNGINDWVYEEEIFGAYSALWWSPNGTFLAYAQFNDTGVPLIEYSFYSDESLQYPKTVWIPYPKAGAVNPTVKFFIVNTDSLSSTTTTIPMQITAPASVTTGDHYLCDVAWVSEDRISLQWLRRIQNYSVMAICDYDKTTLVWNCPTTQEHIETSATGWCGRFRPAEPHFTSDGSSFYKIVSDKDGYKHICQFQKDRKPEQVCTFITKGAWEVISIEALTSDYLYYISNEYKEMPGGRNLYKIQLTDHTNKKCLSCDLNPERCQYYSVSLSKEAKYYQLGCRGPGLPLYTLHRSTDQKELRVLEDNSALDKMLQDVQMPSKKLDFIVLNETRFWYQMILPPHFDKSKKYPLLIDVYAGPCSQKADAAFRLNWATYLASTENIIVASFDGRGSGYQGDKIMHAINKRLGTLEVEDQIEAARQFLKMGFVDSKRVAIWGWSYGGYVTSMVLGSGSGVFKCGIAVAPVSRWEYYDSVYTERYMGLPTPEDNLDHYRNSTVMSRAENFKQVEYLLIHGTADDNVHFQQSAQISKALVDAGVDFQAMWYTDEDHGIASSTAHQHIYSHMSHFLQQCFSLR
Give the quantity in µM, number only.

Here is how some compounds turned out for IC50.
{"COMPOUND": "N#CC1CC=NN1C(=O)CNC1CC2CCC1C2 (stereo unspecified)", "SYSTEM_NAME": "Dipeptidyl peptidase 4 (Rattus norvegicus, UniProt P14740)", "UNITS_OF_MEASURE": "µM", "IC50": 2.1}
{"COMPOUND": "N#CC1CC=NN1C(=O)CNC12CC3CC(CC(O)(C3)C1)C2 (stereo unspecified)", "SYSTEM_NAME": "Dipeptidyl peptidase 4 (Rattus norvegicus, UniProt P14740)", "UNITS_OF_MEASURE": "µM", "IC50": 6.4}

Exam item: Report value: IC50, system: Dipeptidyl peptidase 4 (Rattus norvegicus, UniProt P14740), compound: N#CC1CC=NN1C(=O)CNC1CCC(NC(=O)c2ccccc2)CC1 (stereo unspecified)
Marked response: 4.4

Exam item: Give IC50 for N#Cc1ccc(NCCNCC(=O)N2NCC[C@H]2C#N)nc1 tested on Dipeptidyl peptidase 4 (Rattus norvegicus, UniProt P14740).
Marked response: 0.06

Exam item: Look up Dipeptidyl peptidase 4 (Rattus norvegicus, UniProt P14740) data: IC50 of N#CC1CC=NN1C(=O)CNC12CC3CC(CC(C3)C1)C2 (stereo unspecified) , then report it.
Marked response: 1.5

----------
# SYSTEM_NAME: Dipeptidyl peptidase 4 (Rattus norvegicus)
# PROTOCOL_TEXT: Inhibitory concentration against rat dipeptidyl peptidase IV
Measured pIC50 by item
Schema: pIC50 number; meaning minus log10 of the concentration expressed in molar units.

Exam item: Provide pIC50 value for the following molecule: N#CC1CC=NN1C(=O)CNC1CCCCC1 (stereo in doubt; 5c)
Marked response: 5.55

Exam item: Output measured pIC50 for this item: CCC(C)[C@@H](N)C(=O)N1N=CCC1C#N (stereo partly specified)
Marked response: 6.66

Exam item: Retrieve pIC50 measured for CC(C)(C)NCC(=O)N1N=CCC1C#N (stereo in doubt; 5a) and print it.
Marked response: 4.61

Exam item: Tell us which pIC50 value is on record for N#CC1CC=NN1C(=O)CNC1C2CC3CC(C2)CC1C3 (stereo unspecified)
Marked response: 5.49

Exam item: For N#CC1CC=NN1C(=O)CNCCNc1ccc([N+](=O)[O-])cn1 (stereo unspecified) , write its pIC50.
Marked response: 5.92

Exam item: Please indicate pIC50 recorded for N#CC1CC=NN1C(=O)CNC1CCCCC1 (stereo in doubt; 1g)
Marked response: 5.64
